Tested on: HOP-62 complex spheroids with HUVEC/MSC, viability
method: Anticancer human tumor HOP-62 cell line growth inhibition [RAS];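 note: spheroids exposed to agents for seven days before readout; 100% = DMSO vehicle control viability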
stated-conditions: second compound 0.003 µM; first compound 0.0316 µM; hits give low values
From the text: RAS pathway inhibitors in Combinations in Complex Spheroids A high-throughput screen of multi-cell type tumor spheroids was designed to identify active combinations of RAS pathway inhibitors and targeted small molecules. Complex spheroids include a stromal component modeled by human endothelial cells (HUVEC) and fibroblasts modeled by human mesenchymal stem cells (MSCs). […] Compounds. […] If the clinical Cmax for an agent had not been determined, the highest concentration tested was 10 microM. […]
Give viability, T/C for every item shown.
Your answer should be a plain number; it is taken to be in %.

Given the entry Cc1nc(N2CCC3(CC2)COC(C)C3N)c(CO)nc1Sc1ccnc(N)c1Cl (stereo not given) + CCn1c(-c2cc(N3CCN(C)CC3)cnc2C(C)OC)c2c3cc(ccc31)-c1csc(n1)CC(NC(=O)C1CC1C)C(=O)N1CCCC(N1)C(=O)OCC(C)(C)C2 , report its measured viability, T/C.
83.8

Another molecule: Nc1ccn(C2OC(CO)C(O)C2(F)F)c(=O)n1 (stereo not given) + CCn1c(-c2cccnc2C(C)OC)c2c3cc(ccc31)N1CCOC(CC(NC(=O)C(C(C)C)N(C)C(=O)C3(F)CCN(C(=O)C#CC(C)(C)N(C)C)CC3)C(=O)N3CCCC(N3)C(=O)OCC(C)(C)C2)C1
18.4

Queued: CC(Nc1ccc2c(c1)OCCn1cc(N3C(=O)OCC3C(F)F)nc1-2)C(N)=O (stereo not given) + CCn1c(-c2cccnc2C(C)OC)c2c3cc(ccc31)N1CCOC(CC(NC(=O)C(C(C)C)N(C)C(=O)C3(F)CCN(C(=O)C#CC(C)(C)N(C)C)CC3)C(=O)N3CCCC(N3)C(=O)OCC(C)(C)C2)C1
87

Okay, and C[C@@H](NC(=O)c1ncnc(N)c1Cl)c1ncc(C(=O)Nc2cc(C(F)(F)F)c(Cl)cn2)s1 + CCn1c(-c2cccnc2C(C)OC)c2c3cc(ccc31)N1CCOC(CC(NC(=O)C(C(C)C)N(C)C(=O)C3(F)CCN(C(=O)C#CC(C)(C)N(C)C)CC3)C(=O)N3CCCC(N3)C(=O)OCC(C)(C)C2)C1 ?
115

Lookup CC(Nc1ccc2c(c1)OCCn1cc(N3C(=O)OCC3C(F)F)nc1-2)C(N)=O (stereo not given) + CCn1c(-c2cc(N3CCN(C)CC3)cnc2C(C)OC)c2c3cc(ccc31)-c1csc(n1)CC(NC(=O)C1CC1C)C(=O)N1CCCC(N1)C(=O)OCC(C)(C)C2
75.9

* * *

Tested on: HOP-62 complex spheroids with HUVEC/MSC, viability
method: Anticancer human tumor HOP-62 cell line growth inhibition [RAS]; active = viability on the fitted dose curve at most 10% of control; inactive = the rest;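 note: spheroids exposed to agents for seven days before readout; 100% = DMSO vehicle control viability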
stated-conditions: second compound 0.3 µM; first compound 10 µM
Allowed answers: yes = active, no = inactive

Per the assay record, what outcome was assigned to CC(Nc1ccc2c(c1)OCCn1cc(N3C(=O)OCC3C(F)F)nc1-2)C(N)=O (stereo unspecified) + CCn1c(-c2cc(N3CCN(C)CC3)cnc2C(C)OC)c2c3cc(ccc31)-c1csc(n1)CC(NC(=O)C1CC1C)C(=O)N1CCCC(N1)C(=O)OCC(C)(C)C2 ?
no

Also check CC(=O)OC12COC1CC(O)C1(C)C(=O)C(O)C3=C(C)C(OC(=O)C(O)C(NC(=O)OC(C)(C)C)c4ccccc4)CC(O)(C(OC(=O)c4ccccc4)C21)C3(C)C (stereo unspecified) + CCn1c(-c2cccnc2C(C)OC)c2c3cc(ccc31)N1CCOC(CC(NC(=O)C(C(C)C)N(C)C(=O)C3(F)CCN(C(=O)C#CC(C)(C)N(C)C)CC3)C(=O)N3CCCC(N3)C(=O)OCC(C)(C)C2)C1
no

Next compound up: Cc1nc(N2CCC3(CC2)COC(C)C3N)c(CO)nc1Sc1ccnc(N)c1Cl (stereo unspecified) + CCn1c(-c2cc(N3CCN(C)CC3)cnc2C(C)OC)c2c3cc(ccc31)-c1csc(n1)CC(NC(=O)C1CC1C)C(=O)N1CCCC(N1)C(=O)OCC(C)(C)C2
no

Would you mind doing CCC(CC)c1cc(NC2CCC(N)C2)n2nccc2n1 (stereo unspecified) + CCn1c(-c2cc(N3CCN(C)CC3)cnc2C(C)OC)c2c3cc(ccc31)-c1csc(n1)CC(NC(=O)C1CC1C)C(=O)N1CCCC(N1)C(=O)OCC(C)(C)C2 as well?
yes

For CC1(O)CCCC1n1c(=O)c(C(F)F)cc2cnc(NC3CCN(S(C)(=O)=O)CC3)nc21 (stereo unspecified) + CCn1c(-c2cccnc2C(C)OC)c2c3cc(ccc31)N1CCOC(CC(NC(=O)C(C(C)C)N(C)C(=O)C3(F)CCN(C(=O)C#CC(C)(C)N(C)C)CC3)C(=O)N3CCCC(N3)C(=O)OCC(C)(C)C2)C1 then?
yes

Record: CC1(O)CCCC1n1c(=O)c(C(F)F)cc2cnc(NC3CCN(S(C)(=O)=O)CC3)nc21 (stereo unspecified) + CCn1c(-c2cc(N3CCN(C)CC3)cnc2C(C)OC)c2c3cc(ccc31)-c1csc(n1)CC(NC(=O)C1CC1C)C(=O)N1CCCC(N1)C(=O)OCC(C)(C)C2
yes

Try CC(C)NCC(C(=O)N1CCN(c2ncnc3c2C(C)CC3O)CC1)c1ccc(Cl)cc1 (stereo unspecified) + CCn1c(-c2cccnc2C(C)OC)c2c3cc(ccc31)N1CCOC(CC(NC(=O)C(C(C)C)N(C)C(=O)C3(F)CCN(C(=O)C#CC(C)(C)N(C)C)CC3)C(=O)N3CCCC(N3)C(=O)OCC(C)(C)C2)C1 next.
no

Now this one: CC(Nc1ccc2c(c1)OCCn1cc(N3C(=O)OCC3C(F)F)nc1-2)C(N)=O (stereo unspecified) + CCn1c(-c2cccnc2C(C)OC)c2c3cc(ccc31)N1CCOC(CC(NC(=O)C(C(C)C)N(C)C(=O)C3(F)CCN(C(=O)C#CC(C)(C)N(C)C)CC3)C(=O)N3CCCC(N3)C(=O)OCC(C)(C)C2)C1
no

What do we get for CC(=O)OC12COC1CC(O)C1(C)C(=O)C(O)C3=C(C)C(OC(=O)C(O)C(NC(=O)OC(C)(C)C)c4ccccc4)CC(O)(C(OC(=O)c4ccccc4)C21)C3(C)C (stereo unspecified) + CCn1c(-c2cc(N3CCN(C)CC3)cnc2C(C)OC)c2c3cc(ccc31)-c1csc(n1)CC(NC(=O)C1CC1C)C(=O)N1CCCC(N1)C(=O)OCC(C)(C)C2 ?
no

Also check C[C@@H](NC(=O)c1ncnc(N)c1Cl)c1ncc(C(=O)Nc2cc(C(F)(F)F)c(Cl)cn2)s1 + CCn1c(-c2cccnc2C(C)OC)c2c3cc(ccc31)N1CCOC(CC(NC(=O)C(C(C)C)N(C)C(=O)C3(F)CCN(C(=O)C#CC(C)(C)N(C)C)CC3)C(=O)N3CCCC(N3)C(=O)OCC(C)(C)C2)C1
no

Please give the result for NC1c2ccccc2OC12CCN(c1cnc3c(N4CCCc5ncccc54)n[nH]c3n1)CC2 (stereo unspecified) + CCn1c(-c2cc(N3CCN(C)CC3)cnc2C(C)OC)c2c3cc(ccc31)-c1csc(n1)CC(NC(=O)C1CC1C)C(=O)N1CCCC(N1)C(=O)OCC(C)(C)C2 too.
no

Same read-out for CC(C)NCC(C(=O)N1CCN(c2ncnc3c2C(C)CC3O)CC1)c1ccc(Cl)cc1 (stereo unspecified) + CCn1c(-c2cc(N3CCN(C)CC3)cnc2C(C)OC)c2c3cc(ccc31)-c1csc(n1)CC(NC(=O)C1CC1C)C(=O)N1CCCC(N1)C(=O)OCC(C)(C)C2 ?
no

Field entry: CCC(CC)c1cc(NC2CCC(N)C2)n2nccc2n1 (stereo unspecified) + CCn1c(-c2cccnc2C(C)OC)c2c3cc(ccc31)N1CCOC(CC(NC(=O)C(C(C)C)N(C)C(=O)C3(F)CCN(C(=O)C#CC(C)(C)N(C)C)CC3)C(=O)N3CCCC(N3)C(=O)OCC(C)(C)C2)C1
yes

Could you do the same for C[C@@H](NC(=O)c1ncnc(N)c1Cl)c1ncc(C(=O)Nc2cc(C(F)(F)F)c(Cl)cn2)s1 + CCn1c(-c2cc(N3CCN(C)CC3)cnc2C(C)OC)c2c3cc(ccc31)-c1csc(n1)CC(NC(=O)C1CC1C)C(=O)N1CCCC(N1)C(=O)OCC(C)(C)C2 , please?
no

// same read-out, input: Cc1nc(N2CCC3(CC2)COC(C)C3N)c(CO)nc1Sc1ccnc(N)c1Cl (stereo unspecified) + CCn1c(-c2cccnc2C(C)OC)c2c3cc(ccc31)N1CCOC(CC(NC(=O)C(C(C)C)N(C)C(=O)C3(F)CCN(C(=O)C#CC(C)(C)N(C)C)CC3)C(=O)N3CCCC(N3)C(=O)OCC(C)(C)C2)C1
no

Then this compound: NC1c2ccccc2OC12CCN(c1cnc3c(N4CCCc5ncccc54)n[nH]c3n1)CC2 (stereo unspecified) + CCn1c(-c2cccnc2C(C)OC)c2c3cc(ccc31)N1CCOC(CC(NC(=O)C(C(C)C)N(C)C(=O)C3(F)CCN(C(=O)C#CC(C)(C)N(C)C)CC3)C(=O)N3CCCC(N3)C(=O)OCC(C)(C)C2)C1
no

Where do these numbers come from? They come from PubChem BioAssay AID2060892.
